Reference source: patent US11225480B2

target: human ME2 enzyme (Homo sapiens, UniProt P23368); test: ME2 inhibition assay (diaphorase/resazurin coupled fluorescence); format: biochemical; conditions: 10 μM compound concentration; read-out: Malic Enzyme 2 % inhibition (10 μM)
Sequence (P23368 19-584): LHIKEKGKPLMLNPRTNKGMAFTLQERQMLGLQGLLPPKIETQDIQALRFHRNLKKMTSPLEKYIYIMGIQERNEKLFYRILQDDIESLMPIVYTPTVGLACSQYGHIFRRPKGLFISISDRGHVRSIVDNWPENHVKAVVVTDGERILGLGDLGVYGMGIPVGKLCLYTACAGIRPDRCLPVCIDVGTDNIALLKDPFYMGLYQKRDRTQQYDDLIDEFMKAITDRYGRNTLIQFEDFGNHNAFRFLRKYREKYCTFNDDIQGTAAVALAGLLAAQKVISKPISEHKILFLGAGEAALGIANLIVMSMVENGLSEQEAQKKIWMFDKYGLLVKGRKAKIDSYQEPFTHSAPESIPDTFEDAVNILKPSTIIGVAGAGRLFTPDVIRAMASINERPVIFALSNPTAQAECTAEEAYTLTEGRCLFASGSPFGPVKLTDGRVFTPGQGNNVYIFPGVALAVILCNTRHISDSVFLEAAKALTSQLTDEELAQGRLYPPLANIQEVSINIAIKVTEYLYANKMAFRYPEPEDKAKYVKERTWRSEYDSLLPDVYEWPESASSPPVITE
Structures can show the parent of a compound that is named as a salt.
// inhibition at 10 µM lookup, one value per entry
observationType: inhibition at 10 µM

{"molecule": "O=C(c1cc2cc(F)ccc2[nH]1)N1CCN(c2ccc(O)cn2)CC1 [I.88]", "result": "70 to 89%"}
{"molecule": "CN(CC(=O)N1CCN(c2ccc(O)cn2)CC1)CC12CC3CC(CC(C3)C1)C2 [I.96]", "result": "70 to 89%"}
{"molecule": "CC(CC(=O)N1CCN(c2ccc(O)cn2)CC1)c1ccccc1 (centres unmarked) [I.115]", "result": "> 90%"}
{"molecule": "O=C(c1c2ccccc2nc2ccccc12)N1CCN(c2ccc(O)cc2)CC1 [I.9]", "result": "> 90%"}
{"molecule": "O=C(Cc1c[nH]c2ccc(F)cc12)N1CCN(c2ccc(O)cc2)CC1 [I.150]", "result": "> 90%"}
{"molecule": "Cn1cc(CC(=O)N2CCN(c3ccc(O)cn3)CC2)c2cc(F)ccc21 [I.165]", "result": "> 90%"}
{"molecule": "Cc1[nH]c2ccc(Cl)cc2c1CC(=O)N1CCN(c2ccc(O)cn2)CC1 [I.175]", "result": "> 90%"}
{"molecule": "O=C(Cc1ccccc1)N1CCN(c2ccc(O)cn2)CC1 [I.6]", "result": "> 90%"}
{"molecule": "Cc1[nH]c2ccc(F)cc2c1CC(=O)N1CCN(c2ccc(O)cn2)CC1 [I.166]", "result": "> 90%"}
{"molecule": "O=C(CC1c2ccccc2-c2ccccc21)N1CCN(c2ccc(O)cn2)CC1 [I.61]", "result": "70 to 89%"}
{"molecule": "O=C(CCc1ccc(Cl)cc1)N1CCN(c2ccc(O)cn2)CC1 [I.82]", "result": "> 90%"}
{"molecule": "CC(C)(C(=O)N1CCN(c2ccc(O)cn2)CC1)c1c[nH]c2ccc(F)cc12 [I.169]", "result": "> 90%"}
{"molecule": "O=C(C=C(c1ccccc1)c1ccccc1)N1CCN(c2ccc(O)cc2)CC1 [I.40]", "result": "> 90%"}
{"molecule": "N#Cc1ccc(CCC(=O)N2CCN(c3ccc(O)cn3)CC2)cc1 [I.138]", "result": "> 90%"}
{"molecule": "O=C(c1c2ccccc2cc2ccccc12)N1CCN(c2ccc(O)cn2)CC1 [I.64]", "result": "50 to 69%"}
{"molecule": "O=C(CCn1ccc2ccccc21)N1CCN(c2ccc(O)cn2)CC1 [I.135]", "result": "> 90%"}
{"molecule": "O=C(Cc1c[nH]c2ccc(F)cc12)N1CCN(c2ccc(O)cn2)CC1 [I.131]", "result": "> 90%"}
{"molecule": "CC(C)(CC(=O)N1CCN(c2ccc(O)cc2)CC1)c1ccccc1 [I.173, hydrochloride salt]", "result": "> 90%"}
{"molecule": "O=C(CSc1ccccc1Br)N1CCN(c2ccc(O)cn2)CC1 [I.143]", "result": "> 90%"}
{"molecule": "O=C(c1c[nH]c2ncccc12)N1CCN(c2ccc(O)cn2)CC1 [I.63]", "result": "70 to 89%"}

###

target: human ME2 enzyme (Homo sapiens, UniProt P23368); experiment: ME2 inhibition assay (diaphorase/resazurin coupled fluorescence); format: biochemical; settings: 10 μM compound concentration; read-out: Malic Enzyme 2 % inhibition (10 μM)
// inhibition at 10 µM lookup, one value per entry

{"compound": "O=C(C1CC(O)(c2ccccc2)C1)N1CCN(c2ccc(O)cn2)CC1 (centres unmarked) [I.124]", "inhibition at 10 µM": "> 90%"}
{"compound": "O=C(O)CCCC(=O)N1CCN(c2ccc(O)cn2)CC1 [I.70]", "inhibition at 10 µM": "70 to 89%"}
{"compound": "CC(C)(CC(=O)N1CCN(c2ccc(O)cn2)CC1)c1ccc(F)cc1 [I.161]", "inhibition at 10 µM": "> 90%"}
{"compound": "O=C(c1c[nH]c2ccccc12)N1CCN(c2ccc(O)cn2)CC1 [I.43]", "inhibition at 10 µM": "50 to 69%"}
{"compound": "O=C(O)c1cccc(-c2cc(C(=O)N3CCN(c4ccc(O)cc4)CC3)ccn2)c1 [I.39]", "inhibition at 10 µM": "> 90%"}

###

Molecular target: UniProt:P48163
Sequence (P48163 1-572): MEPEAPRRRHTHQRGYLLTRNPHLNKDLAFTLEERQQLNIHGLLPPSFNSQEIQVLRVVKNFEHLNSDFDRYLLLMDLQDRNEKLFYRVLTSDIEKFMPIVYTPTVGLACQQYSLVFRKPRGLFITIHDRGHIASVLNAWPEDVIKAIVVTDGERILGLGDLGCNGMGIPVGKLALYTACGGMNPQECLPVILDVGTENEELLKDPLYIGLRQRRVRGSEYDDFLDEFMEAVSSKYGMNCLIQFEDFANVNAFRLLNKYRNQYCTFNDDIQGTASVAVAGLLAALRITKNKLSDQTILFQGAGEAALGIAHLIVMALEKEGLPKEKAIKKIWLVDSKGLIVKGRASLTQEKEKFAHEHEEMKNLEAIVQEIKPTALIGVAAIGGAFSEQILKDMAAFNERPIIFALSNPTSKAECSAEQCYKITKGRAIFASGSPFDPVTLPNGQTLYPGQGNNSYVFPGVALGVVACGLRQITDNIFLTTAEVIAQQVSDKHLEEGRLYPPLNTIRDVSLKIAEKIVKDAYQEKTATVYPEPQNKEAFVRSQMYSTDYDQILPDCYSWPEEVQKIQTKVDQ
Assay: ME1 inhibition assay (diaphorase/resazurin coupled fluorescence)
Type: biochemical
Details: 10 μM compound concentration; read-out: Malic Enzyme 1 % inhibition (10 μM)
// inhibition at 10 µM lookup, one value per entry

{"molecule": "O=C(Cc1ccccc1)N1CCN(c2ccc(O)cc2F)CC1", "inhibition at 10 µM": "> 90%"}
{"molecule": "O=C(O)c1ccccc1CCC(=O)N1CCN(c2ccc(O)cn2)CC1", "inhibition at 10 µM": "70 to 89%"}
{"molecule": "Cc1[nH]c2ccc(Cl)cc2c1CC(=O)N1CCN(c2ccc(O)cn2)CC1", "inhibition at 10 µM": "> 90%"}
{"molecule": "COC(=O)c1ccccc1CCC(=O)N1CCN(c2ccc(O)cn2)CC1", "inhibition at 10 µM": "70 to 89%"}
{"molecule": "O=C(CC(O)c1ccccc1)N1CCN(c2ccc(O)cn2)CC1 (stereo not drawn)", "inhibition at 10 µM": "70 to 89%"}
{"molecule": "O=C(CSc1ccc(F)cc1)N1CCN(c2ccc(O)cn2)CC1", "inhibition at 10 µM": "> 90%"}
{"molecule": "O=C(c1c[nH]c2ccccc12)N1CCN(c2ccc(O)cn2)CC1", "inhibition at 10 µM": "> 90%"}
{"molecule": "O=C(CC1c2ccccc2-c2ccccc21)N1CCN(c2ccc(O)cn2)CC1", "inhibition at 10 µM": "70 to 89%"}
{"molecule": "O=C(Cc1ccccc1Oc1ccccc1)N1CCN(c2ccc(O)cc2)CC1", "inhibition at 10 µM": "> 90%"}
{"molecule": "O=C(Cc1cc(F)cc(F)c1)N1CCN(c2ccc(O)cc2)CC1", "inhibition at 10 µM": "> 90%"}
{"molecule": "Cc1cc(F)ccc1CCC(=O)N1CCN(c2ccc(O)cn2)CC1", "inhibition at 10 µM": "> 90%"}
{"molecule": "COCCOc1ccc(CC(=O)N2CCN(c3ccc(O)cc3)CC2)cc1", "inhibition at 10 µM": "> 90%"}
{"molecule": "O=C(CC1CC1)N1CCN(c2ccc(O)cn2)CC1", "inhibition at 10 µM": "> 90%"}
{"molecule": "O=C(CCc1ccc(F)c(F)c1)N1CCN(c2ccc(O)cn2)CC1", "inhibition at 10 µM": "> 90%"}
{"molecule": "O=C(Cc1ccc(C(F)(F)F)cc1)N1CCN(c2ccc(O)cc2)CC1", "inhibition at 10 µM": "> 90%"}
{"molecule": "O=C(CCCc1ccccc1)N1CCN(c2ccc(O)cn2)CC1", "inhibition at 10 µM": "70 to 89%"}
{"molecule": "O=C(COc1ccc(F)cc1)N1CCN(c2ccc(O)cn2)CC1", "inhibition at 10 µM": "> 90%"}
{"molecule": "O=C(Cc1ccccc1)N1CCN(c2ccc(O)cn2)CC1", "inhibition at 10 µM": "> 90%"}
{"molecule": "Cn1cc(C(=O)N2CCN(c3ccc(O)cn3)CC2)c(=O)c2ccccc21", "inhibition at 10 µM": "70 to 89%"}
{"molecule": "CC(C)(Sc1ccccc1Br)C(=O)N1CCN(c2ccc(O)cn2)CC1", "inhibition at 10 µM": "> 90%"}
{"molecule": "Cc1[nH]c2ccccc2c1CC(=O)N1CCN(c2ccc(O)cn2)CC1", "inhibition at 10 µM": "> 90%"}
